Test system: encephelomyocarditis virus
Experiment: Antiviral assay: cytopathic effect in HeLa cells
Format: cell-based, human
Conditions: relative CM concentration .0156X
Percentage Cytopathic Effect values, listed per item
Field: numeric (%). Do not append units.

Use the examples below as a reference point.
IL-28B: human IL-28B, previously designated zcyto22, SEQ ID NO:6 (protein, listed as Homo sapiens, SIGNAL (1)...(25)) MKLDMTGDCMPVLVLMAAVLTVTGAVPVARLRGALPDARGCHIAQFKSLSPQELQAFKRAKDALEESLLLKDCKCRSRLFPRTWDLRQLQVRERPVALEAELALTLKVLEATADTDPALGDVLDQPLHTLHHILSQLRACIQPQPTAGPRTRGRLHHWLHRLQEAPKKESPGCLEASVTFNLFRLLTRDLNCVASGDLCV = 0
zcyto24: mouse IL-28, SEQ ID NO:8 (protein, listed as Mus musculus, SIGNAL (1)...(28)) MKPETAGGHMLLLLLPLLLAAVLTRTQADPVPRATRLPVEAKDCHIAQFKSLSPKELQAFKKAKDAIEKRLLEKDLRCSSHLFPRAWDLKQLQVQERPKALQAEVALTLKVWENMTDSALATILGQPLHTLSHIHSQLQTCTQLQATAEPRSPSRRLSRWLHRLQEAQSKETPGCLEASVTSNLFRLLTRDLKCVANGDQCV = 0

Please examine the following record next.
Req: # lookup: Percentage Cytopathic Effect of IL-28A: human IL-28A, previously designated zcyto20, SEQ ID NO:2 (protein, listed as Homo sapiens, SIGNAL (1)...(25)) MKLDMTGDCTPVLVLMAAVLTVTGAVPVARLHGALPDARGCHIAQFKSLSPQELQAFKRAKDALEESLLLKDCRCHSRLFPRTWDLRQLQVRERPMALEAELALTLKVLEATADTDPALVDVLDQPLHTLHHILSQFRACIQPQPTAGPRTRGRLHHWLYRLQEAPKKESPGCLEASVTFNLFRLLTRDLNCVASGDLCV
Resp: 2.5
